Entry source: patent US5733719A

Tested on: Lymphs
Assay details: Peptidases to distinguish leukemia from non-leukemia, lymphocytes
Assay type: cell-based, human
Set-up: unit not given here
Study conditions: P69 pancreatic CA

Compound	enzyme activity
CC(C)C[C@H](N)C(=O)NCC(=O)Nc1ccc2c(c1)Oc1cc(NC(=O)CNC(=O)[C@@H](N)CC(C)C)ccc1C21OC(=O)c2ccccc21	2.00
C[C@@H](O)[C@H](N)C(=O)N1CCC[C@H]1C(=O)Nc1ccc2c(c1)Oc1cc(NC(=O)[C@@H]3CCCN3C(=O)[C@@H](N)[C@@H](C)O)ccc1C21OC(=O)c2ccccc21	2.26
O=C1OC2(c3ccc(NC(=O)[C@@H]4CCCN4)cc3Oc3cc(NC(=O)[C@@H]4CCCN4)ccc32)c2ccccc21 [PRO, (H--L--Pro)2 Rho 110-2TFA]	0.66
CC(C)[C@H](N)C(=O)N[C@@H](CO)C(=O)Nc1ccc2c(c1)Oc1cc(NC(=O)[C@H](CO)NC(=O)[C@@H](N)C(C)C)ccc1C21OC(=O)c2ccccc21 [VS, (H--L--Val--Ser)2 Rho 110-2TFA]	0.18
NC(=O)CC[C@H](N)C(=O)N[C@@H](CO)C(=O)Nc1ccc2c(c1)Oc1cc(NC(=O)[C@H](CO)NC(=O)[C@@H](N)CCC(N)=O)ccc1C21OC(=O)c2ccccc21 [QS, (H--L--Gln--Ser)2 Rho 110-2TFA]	0.31
NCC(=O)Nc1ccc2c(c1)Oc1cc(NC(=O)CN)ccc1C21OC(=O)c2ccccc21	67.38
NCC(=O)N1CCC[C@H]1C(=O)Nc1ccc2c(c1)Oc1cc(NC(=O)[C@@H]3CCCN3C(=O)CN)ccc1C21OC(=O)c2ccccc21	6.80
NCCCC[C@H](N)C(=O)Nc1ccc2c(c1)Oc1cc(NC(=O)[C@@H](N)CCCCN)ccc1C21OC(=O)c2ccccc21 [LYS, (H--L--Lys)2 Rho 110-4TFA]	1.22
C[C@H](N)C(=O)Nc1ccc2c(c1)Oc1cc(NC(=O)[C@H](C)N)ccc1C21OC(=O)c2ccccc21	130.34

----------
Tested on: Lymphs
Assay details: Peptidases to distinguish leukemia from non-leukemia, lymphocytes
Type: cell-based, human
Parameters: unit not given here
Study conditions: J4 11/21/91 acute leuk.

Compound	enzyme activity
NC(=O)CC[C@H](N)C(=O)N[C@@H](CO)C(=O)Nc1ccc2c(c1)Oc1cc(NC(=O)[C@H](CO)NC(=O)[C@@H](N)CCC(N)=O)ccc1C21OC(=O)c2ccccc21 [QS, (H--L--Gln--Ser)2 Rho 110-2TFA]	0.05
C[C@@H](O)[C@H](N)C(=O)N1CCC[C@H]1C(=O)Nc1ccc2c(c1)Oc1cc(NC(=O)[C@@H]3CCCN3C(=O)[C@@H](N)[C@@H](C)O)ccc1C21OC(=O)c2ccccc21 [TP]	2.30
CC(C)C[C@H](N)C(=O)NCC(=O)Nc1ccc2c(c1)Oc1cc(NC(=O)CNC(=O)[C@@H](N)CC(C)C)ccc1C21OC(=O)c2ccccc21 [LG]	0.16

----------
System: Lymphs
Assay details: Peptidases to distinguish leukemia from non-leukemia, lymphocytes
Format: cell-based, human
Set-up: unit not given here
Study conditions: J4 12/2/91 AL
Reported metric: enzyme activity

Compound	Test system	Measurement
NC(=O)CC[C@H](N)C(=O)N[C@@H](CO)C(=O)Nc1ccc2c(c1)Oc1cc(NC(=O)[C@H](CO)NC(=O)[C@@H](N)CCC(N)=O)ccc1C21OC(=O)c2ccccc21 [QS, (H--L--Gln--Ser)2 Rho 110-2TFA]	Lymphs	0.01
C[C@@H](O)[C@H](N)C(=O)N1CCC[C@H]1C(=O)Nc1ccc2c(c1)Oc1cc(NC(=O)[C@@H]3CCCN3C(=O)[C@@H](N)[C@@H](C)O)ccc1C21OC(=O)c2ccccc21	Lymphs	1.46
NCC(=O)N1CCC[C@H]1C(=O)Nc1ccc2c(c1)Oc1cc(NC(=O)[C@@H]3CCCN3C(=O)CN)ccc1C21OC(=O)c2ccccc21	Lymphs	3.80
NCC(=O)Nc1ccc2c(c1)Oc1cc(NC(=O)CN)ccc1C21OC(=O)c2ccccc21	Lymphs	27.32
CC(C)C[C@H](N)C(=O)NCC(=O)Nc1ccc2c(c1)Oc1cc(NC(=O)CNC(=O)[C@@H](N)CC(C)C)ccc1C21OC(=O)c2ccccc21	Lymphs	0.18
CC(C)[C@H](N)C(=O)N[C@@H](CO)C(=O)Nc1ccc2c(c1)Oc1cc(NC(=O)[C@H](CO)NC(=O)[C@@H](N)C(C)C)ccc1C21OC(=O)c2ccccc21 [VS, (H--L--Val--Ser)2 Rho 110-2TFA]	Lymphs	0.03

----------
Tested on: Grans
Assay details: Peptidases to distinguish leukemia from non-leukemia, granulocytes
Type: cell-based, human
Design: unit not given here
Study conditions: J4 11/21/91 acute leuk.

Compound	enzyme activity
CC(C)C[C@H](N)C(=O)NCC(=O)Nc1ccc2c(c1)Oc1cc(NC(=O)CNC(=O)[C@@H](N)CC(C)C)ccc1C21OC(=O)c2ccccc21 [LG]	0.85
NC(=O)CC[C@H](N)C(=O)N[C@@H](CO)C(=O)Nc1ccc2c(c1)Oc1cc(NC(=O)[C@H](CO)NC(=O)[C@@H](N)CCC(N)=O)ccc1C21OC(=O)c2ccccc21 [QS, (H--L--Gln--Ser)2 Rho 110-2TFA]	0.22
C[C@H](N)C(=O)Nc1ccc2c(c1)Oc1cc(NC(=O)[C@H](C)N)ccc1C21OC(=O)c2ccccc21 [ALA, (Ala)2 Rho 110]	193.43
NCC(=O)N1CCC[C@H]1C(=O)Nc1ccc2c(c1)Oc1cc(NC(=O)[C@@H]3CCCN3C(=O)CN)ccc1C21OC(=O)c2ccccc21 [GP]	10.75
O=C1OC2(c3ccc(NC(=O)[C@@H]4CCCN4)cc3Oc3cc(NC(=O)[C@@H]4CCCN4)ccc32)c2ccccc21 [PRO, (H--L--Pro)2 Rho 110-2TFA]	5.77
CC(C)[C@H](N)C(=O)N[C@@H](CO)C(=O)Nc1ccc2c(c1)Oc1cc(NC(=O)[C@H](CO)NC(=O)[C@@H](N)C(C)C)ccc1C21OC(=O)c2ccccc21 [VS, (H--L--Val--Ser)2 Rho 110-2TFA]	0.37
NCCCC[C@H](N)C(=O)Nc1ccc2c(c1)Oc1cc(NC(=O)[C@@H](N)CCCCN)ccc1C21OC(=O)c2ccccc21 [LYS, (H--L--Lys)2 Rho 110-4TFA]	3.01
C[C@@H](O)[C@H](N)C(=O)N1CCC[C@H]1C(=O)Nc1ccc2c(c1)Oc1cc(NC(=O)[C@@H]3CCCN3C(=O)[C@@H](N)[C@@H](C)O)ccc1C21OC(=O)c2ccccc21 [TP]	5.96
NCC(=O)Nc1ccc2c(c1)Oc1cc(NC(=O)CN)ccc1C21OC(=O)c2ccccc21 [GLY, (Gly)2 Rho 110]	27.79

----------
Tested on: Grans
Assay details: Peptidases to distinguish leukemia from non-leukemia, granulocytes
Type: cell-based, human
Parameters: unit not given here
Study conditions: P71 ac. pyelonephritis

Molecule	enzyme activity
O=C1OC2(c3ccc(NC(=O)[C@@H]4CCCN4)cc3Oc3cc(NC(=O)[C@@H]4CCCN4)ccc32)c2ccccc21 [PRO, (H--L--Pro)2 Rho 110-2TFA]	6.33
NCC(=O)N1CCC[C@H]1C(=O)Nc1ccc2c(c1)Oc1cc(NC(=O)[C@@H]3CCCN3C(=O)CN)ccc1C21OC(=O)c2ccccc21	11.07
NC(=O)CC[C@H](N)C(=O)N[C@@H](CO)C(=O)Nc1ccc2c(c1)Oc1cc(NC(=O)[C@H](CO)NC(=O)[C@@H](N)CCC(N)=O)ccc1C21OC(=O)c2ccccc21 [QS, (H--L--Gln--Ser)2 Rho 110-2TFA]	0.51
CC(C)C[C@H](N)C(=O)NCC(=O)Nc1ccc2c(c1)Oc1cc(NC(=O)CNC(=O)[C@@H](N)CC(C)C)ccc1C21OC(=O)c2ccccc21	4.00
NCCCC[C@H](N)C(=O)Nc1ccc2c(c1)Oc1cc(NC(=O)[C@@H](N)CCCCN)ccc1C21OC(=O)c2ccccc21 [LYS, (H--L--Lys)2 Rho 110-4TFA]	4.17
C[C@@H](O)[C@H](N)C(=O)N1CCC[C@H]1C(=O)Nc1ccc2c(c1)Oc1cc(NC(=O)[C@@H]3CCCN3C(=O)[C@@H](N)[C@@H](C)O)ccc1C21OC(=O)c2ccccc21	4.37

----------
Recorded measurements of enzyme activity, one per entry
Test system: Lymphs
Assay details: Peptidases to distinguish leukemia from non-leukemia, lymphocytes
Type: cell-based, human
Set-up: unit not given here
Study conditions: P70 cirrhosis/hemobilia
Description: Artificial intelligence was used to analyze data of cellular enzyme functions, and determine normal and disease states. Peptidases were used to distinguish leukemia from non-leukemia (output pattern). For input patterns lymphocyte and granulocyte cell types were used with aminopeptidases, cathepsins and dipeptidylpeptidase enzyme activities. […]

Molecule	enzyme activity
NC(=O)CC[C@H](N)C(=O)N[C@@H](CO)C(=O)Nc1ccc2c(c1)Oc1cc(NC(=O)[C@H](CO)NC(=O)[C@@H](N)CCC(N)=O)ccc1C21OC(=O)c2ccccc21 [QS, (H--L--Gln--Ser)2 Rho 110-2TFA]	0.04
C[C@@H](O)[C@H](N)C(=O)N1CCC[C@H]1C(=O)Nc1ccc2c(c1)Oc1cc(NC(=O)[C@@H]3CCCN3C(=O)[C@@H](N)[C@@H](C)O)ccc1C21OC(=O)c2ccccc21	1.89
NCC(=O)N1CCC[C@H]1C(=O)Nc1ccc2c(c1)Oc1cc(NC(=O)[C@@H]3CCCN3C(=O)CN)ccc1C21OC(=O)c2ccccc21	6.68
CC(C)[C@H](N)C(=O)N[C@@H](CO)C(=O)Nc1ccc2c(c1)Oc1cc(NC(=O)[C@H](CO)NC(=O)[C@@H](N)C(C)C)ccc1C21OC(=O)c2ccccc21 [VS, (H--L--Val--Ser)2 Rho 110-2TFA]	0.04
CC(C)C[C@H](N)C(=O)NCC(=O)Nc1ccc2c(c1)Oc1cc(NC(=O)CNC(=O)[C@@H](N)CC(C)C)ccc1C21OC(=O)c2ccccc21	0.79
NCC(=O)Nc1ccc2c(c1)Oc1cc(NC(=O)CN)ccc1C21OC(=O)c2ccccc21	54.84
NCCCC[C@H](N)C(=O)Nc1ccc2c(c1)Oc1cc(NC(=O)[C@@H](N)CCCCN)ccc1C21OC(=O)c2ccccc21 [LYS, (H--L--Lys)2 Rho 110-4TFA]	1.02
C[C@H](N)C(=O)Nc1ccc2c(c1)Oc1cc(NC(=O)[C@H](C)N)ccc1C21OC(=O)c2ccccc21	141.87
O=C1OC2(c3ccc(NC(=O)[C@@H]4CCCN4)cc3Oc3cc(NC(=O)[C@@H]4CCCN4)ccc32)c2ccccc21 [PRO, (H--L--Pro)2 Rho 110-2TFA]	0.56
